Ref: PubChem BioAssay (EPA / NIEHS)

# test.details: ATG_GATA_CIS: Attagene CIS-FACTORIAL HepG2 Assay for human GATA Binding Protein (AID 2282944)
# settings: HepG2 GATA cis-element reporter, Attagene multiplex mRNA; actives raise or lower the signal
Active and inactive are the calls of the source. The calls were made as follows: active = hit-call score of the fitted dose curve at least 0.9, where 1 is the maximum; inactive = score below 0.9.
The reply should be one of these categories: active, inactive

Asked: Entry `O=S(=O)(O)CCC(F)(F)C(F)(F)C(F)(F)C(F)(F)C(F)(F)C(F)(F)F` : call = ?
Given back: inactive

Asked: Outcome? `CCCC(CCC)C(=O)O`
Given back: inactive

Asked: Hi, do you know how `O=C(O)c1cccc(C[C@@H]2COc3ccc(OCc4nc5cc(F)ccc5s4)cc3[C@@H]2O)c1` came out in this test?
Given back: inactive

Asked: # outcome recorded in this test, key = `Cc1cccc(O)c1C`
Given back: inactive

Asked: For `c1ccc(C(O[C@@H]2CCCN(CCc3ccc4c(c3)OCO4)C2)c2ccccc2)cc1` , which call appears in the assay record?
Given back: inactive

Asked: Test call, this compound: `CCCCN1C(=O)[C@@H]([C@H](O)C2CCCCC2)NC(=O)C12CCN(Cc1ccc(Oc3ccc(C(=O)O)cc3)cc1)CC2`
Given back: inactive

Asked: Fill in: this test's call for `COCc1nnc(-c2ccc[n+]([O-])c2)n1-c1c(Cl)c(Cl)cc2[nH]c(=O)c(=O)[nH]c12` is ___
Given back: inactive

Asked: Returns: the outcome recorded for `CC(C)C(=O)Nc1ccc([N+](=O)[O-])c(C(F)(F)F)c1` in this assay.
Given back: inactive

Asked: So what was the verdict on `C=CCc1cc(S(=O)(=O)c2ccc(O)c(CC=C)c2)ccc1O` in this test?
Given back: inactive

Asked: Which outcome did this test record for the compound `C[C@@H](Oc1ccc(CNC(=O)c2cccnc2Oc2ccc3c(c2)OCO3)c(F)c1)C(=O)O` ?
Given back: inactive

Asked: # lookup: test call for `FC(F)(F)COC(OCC(F)(F)F)OCC(F)(F)F`
Given back: inactive

Asked: State the result this test recorded for `CC(C)c1nnc2ccc(-c3ocnc3-c3cc(F)ccc3F)cn12` .
Given back: inactive

Asked: Lab log entry: `OCCC(F)(F)C(F)(F)C(F)(F)C(F)(F)F` — outcome as called in the assay?
Given back: inactive

Asked: GET /call?item= CCCCC(CC)C(=O)OCCOCCOCCOC(=O)C(CC)CCCC (stereo unspecified) returns the recorded outcome of this test.
Given back: inactive

Asked: For `CCOC(N)=O` , which call appears in the assay record?
Given back: inactive

Asked: Hi, do you know how `COc1cc(C(C)C)c2c(c1)S(=O)(=O)N(COc1cc(=O)n3cccc(OCCN4CCCCC4)c3n1)C2=O` came out in this test?
Given back: active

Asked: Hi, do you know how `C[C@]12C=CC(=O)C=C1CC[C@H]1[C@@H]3C[C@@H](O)[C@](O)(C(=O)CO)[C@@]3(C)C[C@H](O)[C@@]12F` came out in this test?
Given back: inactive

Asked: Look up the recorded call for `C[Si](C)(C)C(F)(F)C(F)(F)C(F)(F)F` in this test.
Given back: inactive

Asked: Hello, I am checking results. What call was entered for `CC[C@H](C)C(=O)O[C@H]1C[C@H](O)C=C2C=C[C@H](C)[C@H](CC[C@@H](O)C[C@@H](O)CC(=O)O)[C@H]21` ?
Given back: inactive

Asked: What is the recorded call for this compound in the test? `CCCCCCCCCCCCCCCCOS(=O)(=O)O`
Given back: inactive

Asked: I'd appreciate the recorded outcome for `NC(=O)N(O)[C@@H]1COc2cc(OCc3ccccc3)ccc21` from this test.
Given back: inactive

Asked: Please share the test call associated with `NC(N)=O` .
Given back: inactive

Asked: Hi, do you know how `OC[C@H]1O[C@@H]2O[C@H]3[C@H](O)[C@@H](O)[C@@H](O[C@H]4[C@H](O)[C@@H](O)[C@@H](O[C@H]5[C@H](O)[C@@H](O)[C@@H](O[C@H]6[C@H](O)[C@@H](O)[C@@H](O[C@H]7[C@H](O)[C@@H](O)[C@@H](O[C@H]1[C@H](O)[C@H]2O)O[C@@H]7CO)O[C@@H]6CO)O[C@@H]5CO)O[C@@H]4CO)O[C@@H]3CO` came out in this test?
Given back: inactive

Asked: What was the test verdict on `OCc1ccccc1` ?
Given back: inactive

Asked: In this assay, the call recorded for `S=P(N1CC1)(N1CC1)N1CC1` was what?
Given back: inactive

Asked: Could you check what this test reported for `COc1cc2c(c(OC)c1OC)-c1ccc(OC)c(=O)cc1[C@@H](NC(C)=O)CC2` ?
Given back: inactive

Asked: Per the assay record, what outcome was assigned to `c1ccc2cc3ccccc3cc2c1` ?
Given back: inactive

Asked: For this compound, state the assay outcome: `CNC(C)=O`
Given back: inactive

Asked: Which outcome was entered for the compound `OC(Cn1cncn1)(Cn1cncn1)c1ccc(F)cc1F` in this test?
Given back: inactive

Asked: Per the records of this test, what outcome belongs to `CC1(C)C(=O)N(Cl)C(=O)N1Cl` ?
Given back: inactive

Asked: Short answer needed: outcome of this test for CCCCCCCC1CCC(=O)O1 (stereo unspecified) ?
Given back: inactive

Asked: # outcome recorded in this test, key = `O=C(O)CO`
Given back: inactive

Asked: So what was the verdict on `Cn1c(=O)c2[nH]cnc2n(C)c1=O` in this test?
Given back: inactive

Asked: Dear colleague, could you share the recorded outcome for `O=C1CN(N=Cc2ccc([N+](=O)[O-])o2)C(=O)N1` when you have a moment?
Given back: inactive

Asked: Assay outcome for `Cc1nc(-c2ccccn2)ncc1C(=O)Nn1cc(C)c2cc(F)ccc21` : what was it?
Given back: inactive

Asked: Check the results log: what was the call for `CCOc1ccc2[nH]cc(C(=O)NCc3ccccc3)c(=O)c2n1` ?
Given back: inactive

Asked: Field: outcome | Entry: `O=C(Cl)C(F)(F)C(F)(F)C(F)(F)C(=O)Cl`
Given back: inactive

Asked: Each compound tested received a call. Report the one for `FC(F)(F)C(F)(F)C(F)(F)C(F)(F)C(F)(F)C(F)(F)I` .
Given back: inactive

Asked: Give the logged outcome of this assay for the following compound: `Cc1ncc([C@@H](CCCCCCc2ccc3c(n2)NCCC3)CC(=O)O)cn1`
Given back: inactive

Asked: Tell me the recorded outcome of this test for `OC(CCl)CCl` .
Given back: inactive

Asked: # lookup: test call for `O=S1(=O)CCCO1`
Given back: inactive
